Taken from paper PMC4599074.

Target: UniProt P27338
Details: ratio IC50 (MAO-A)/IC50 (MAO-B)
Would you mind telling me the reported SI (selectivity index for the MAO-B isoform) of each entry?
Respond numerically, and do not add a unit to the figure.

O=C1COc2cc(OCc3ccc(Br)cc3)ccc21 [5f] yielded SI (selectivity index for the MAO-B isoform) of 175

Cc1ccc(CCOc2ccc3c(c2)OCC3=O)cc1 [5s] yielded SI (selectivity index for the MAO-B isoform) of 11

N#Cc1ccc(COc2ccc3c(c2)OCC3=O)cc1 [5j] yielded SI (selectivity index for the MAO-B isoform) of 63

O=C1COc2cc(OCc3ccccc3)ccc21 [5a, 6-(Benzyloxy)-2H-1-benzofuran-3-one] yielded SI (selectivity index for the MAO-B isoform) of 431

O=C1COc2cc(OCCc3ccccc3)ccc21 [5o] yielded SI (selectivity index for the MAO-B isoform) of 129

Cc1cccc(COc2ccc3c(c2)OCC3=O)c1 [5m] yielded SI (selectivity index for the MAO-B isoform) of 646

----------
Molecular target: MAO-B (Homo sapiens, UniProt P27338)
Sequence (P27338 1-520): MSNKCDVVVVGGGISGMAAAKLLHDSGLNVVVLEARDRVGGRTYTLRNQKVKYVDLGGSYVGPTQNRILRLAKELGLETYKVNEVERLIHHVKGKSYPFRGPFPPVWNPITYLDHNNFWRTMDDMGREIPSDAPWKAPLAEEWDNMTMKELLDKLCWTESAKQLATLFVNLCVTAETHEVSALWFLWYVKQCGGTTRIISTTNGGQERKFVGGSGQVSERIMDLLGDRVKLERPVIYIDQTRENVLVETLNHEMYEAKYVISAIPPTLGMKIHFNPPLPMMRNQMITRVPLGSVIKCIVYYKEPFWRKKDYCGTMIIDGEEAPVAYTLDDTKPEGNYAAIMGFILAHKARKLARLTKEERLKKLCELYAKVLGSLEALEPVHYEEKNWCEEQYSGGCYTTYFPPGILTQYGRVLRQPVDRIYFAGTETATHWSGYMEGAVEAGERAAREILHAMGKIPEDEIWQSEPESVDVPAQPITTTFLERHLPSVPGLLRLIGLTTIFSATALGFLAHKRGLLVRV
Value Type: IC50 (nM)
Enter your answer as a number in nM; do not include the unit.

O=C1COc2cc(OCc3ccccc3)ccc21 yielded IC50 of 62

O=C1COc2cc(OCCOc3ccccc3)ccc21 yielded IC50 of 50

Cc1cccc(COc2ccc3c(c2)OCC3=O)c1 yielded IC50 of 96

Cc1cccc(CCOc2ccc3c(c2)OCC3=O)c1 yielded IC50 of 181

O=C1COc2cc(OCc3ccc(C(F)(F)F)cc3)ccc21 yielded IC50 of 39

O=C1COc2cc(OCc3cccc(F)c3)ccc21 yielded IC50 of 136

O=C1COc2cc(OCc3ccc(I)cc3)ccc21 yielded IC50 of 28

O=C1COc2cc(OCCc3ccccc3)ccc21 yielded IC50 of 107

N#Cc1ccc(COc2ccc3c(c2)OCC3=O)cc1 yielded IC50 of 79

O=C1COc2cc(OCc3ccc(Br)cc3)ccc21 yielded IC50 of 16

Cc1ccc(COc2ccc3c(c2)OCC3=O)cc1 yielded IC50 of 54

----------
Value Type: Ki

Form: item O=C1COc2cc(OCc3cccc(Br)c3)ccc21 [5g] ; test system MAO-B (Homo sapiens); Ki: 3.4 nM

----------
Protein target, amino acids: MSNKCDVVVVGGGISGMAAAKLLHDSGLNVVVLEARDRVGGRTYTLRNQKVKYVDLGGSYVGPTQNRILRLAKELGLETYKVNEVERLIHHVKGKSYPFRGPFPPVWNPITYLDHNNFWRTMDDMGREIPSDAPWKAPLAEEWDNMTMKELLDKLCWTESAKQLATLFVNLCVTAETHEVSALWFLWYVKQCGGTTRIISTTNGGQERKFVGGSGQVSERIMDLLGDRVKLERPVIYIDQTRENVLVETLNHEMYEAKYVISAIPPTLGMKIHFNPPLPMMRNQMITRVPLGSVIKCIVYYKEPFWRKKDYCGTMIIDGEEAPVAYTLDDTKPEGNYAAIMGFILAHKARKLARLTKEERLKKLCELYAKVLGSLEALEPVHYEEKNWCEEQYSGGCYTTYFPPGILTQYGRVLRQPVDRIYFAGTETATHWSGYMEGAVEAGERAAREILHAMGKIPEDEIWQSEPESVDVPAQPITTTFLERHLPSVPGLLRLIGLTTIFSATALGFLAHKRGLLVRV
Threshold 10 nM. IC50 below it: class 1. IC50 at it or above: class 0.

Task item: Answer whether the molecule O=C1COc2cc(OCCCc3ccccc3)ccc21 has IC50 strictly less than 10 nM
Reply: class 0

Task item: Answer whether the molecule O=C1COc2cc(OCc3cccc(Cl)c3)ccc21 has IC50 strictly less than 10 nM
Reply: class 0

Task item: Answer whether the molecule O=C1COc2cc(OCCc3ccc(Br)cc3)ccc21 has IC50 strictly less than 10 nM
Reply: class 0

Task item: Answer whether the molecule Cc1ccc(CCOc2ccc3c(c2)OCC3=O)cc1 has IC50 strictly less than 10 nM
Reply: class 0

Task item: Answer whether the molecule O=C1COc2cc(OCc3cccc(Br)c3)ccc21 has IC50 strictly less than 10 nM
Reply: class 1

Task item: Answer whether the molecule O=C1COc2cc(OCc3cccc(I)c3)ccc21 has IC50 strictly less than 10 nM
Reply: class 1

----------
Molecular target: MAO-B (Homo sapiens, UniProt P27338)
Conditions: ratio IC50 (MAO-A)/IC50 (MAO-B)
Value Type: SI (selectivity index for the MAO-B isoform)
Respond numerically, and do not add a unit to the figure.

O=C1COc2cc(OCc3ccc(Cl)cc3)ccc21 [5d] yielded SI (selectivity index for the MAO-B isoform) of 115

N#Cc1cccc(COc2ccc3c(c2)OCC3=O)c1 [5k] yielded SI (selectivity index for the MAO-B isoform) of 3.5

O=C1COc2cc(OCCc3ccc(Br)cc3)ccc21 [5r] yielded SI (selectivity index for the MAO-B isoform) of 4.7

O=C1COc2cc(OCc3cccc(F)c3)ccc21 [5c] yielded SI (selectivity index for the MAO-B isoform) of 593

O=C1COc2cc(OCc3cccc(Br)c3)ccc21 [5g] yielded SI (selectivity index for the MAO-B isoform) of 980

O=C1COc2cc(OCCCc3ccccc3)ccc21 [5p] yielded SI (selectivity index for the MAO-B isoform) of 215

Cc1cccc(CCOc2ccc3c(c2)OCC3=O)c1 [5t] yielded SI (selectivity index for the MAO-B isoform) of 143

O=C1COc2cc(OCc3ccc(F)cc3)ccc21 [5b] yielded SI (selectivity index for the MAO-B isoform) of 518

----------
Target: UniProt P27338
Sequence (P27338 1-520): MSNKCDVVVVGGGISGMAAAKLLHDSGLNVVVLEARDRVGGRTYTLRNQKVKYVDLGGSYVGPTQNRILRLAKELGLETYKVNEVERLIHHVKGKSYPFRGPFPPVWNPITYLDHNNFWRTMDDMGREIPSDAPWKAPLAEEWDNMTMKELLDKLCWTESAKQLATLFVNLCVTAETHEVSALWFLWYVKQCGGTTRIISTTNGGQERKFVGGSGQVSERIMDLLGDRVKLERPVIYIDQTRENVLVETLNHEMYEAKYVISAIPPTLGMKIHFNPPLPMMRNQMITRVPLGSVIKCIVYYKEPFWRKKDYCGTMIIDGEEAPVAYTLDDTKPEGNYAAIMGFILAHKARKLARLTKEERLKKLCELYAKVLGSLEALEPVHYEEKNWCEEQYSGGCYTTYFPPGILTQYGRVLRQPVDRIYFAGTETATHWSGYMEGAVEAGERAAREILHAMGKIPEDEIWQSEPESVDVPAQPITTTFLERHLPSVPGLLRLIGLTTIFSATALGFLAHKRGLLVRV
Experiment: biochemical
Value Type: pIC50
pIC50 (log units): -log10 of the concentration in mol/L.

O=C1COc2cc(O)ccc21 [compound 6, 6-Hydroxy-3-coumaranone, reference compound] yielded pIC50 of 4.92

O=C1COc2cc(OCc3ccc(F)cc3)ccc21 yielded pIC50 of 7.66

N#Cc1cccc(COc2ccc3c(c2)OCC3=O)c1 yielded pIC50 of 6.78

O=C1COc2cc(OCc3ccc(Cl)cc3)ccc21 yielded pIC50 of 7.72

----------
Would you mind telling me the reported pIC50 of each entry?
Protein target, amino acids: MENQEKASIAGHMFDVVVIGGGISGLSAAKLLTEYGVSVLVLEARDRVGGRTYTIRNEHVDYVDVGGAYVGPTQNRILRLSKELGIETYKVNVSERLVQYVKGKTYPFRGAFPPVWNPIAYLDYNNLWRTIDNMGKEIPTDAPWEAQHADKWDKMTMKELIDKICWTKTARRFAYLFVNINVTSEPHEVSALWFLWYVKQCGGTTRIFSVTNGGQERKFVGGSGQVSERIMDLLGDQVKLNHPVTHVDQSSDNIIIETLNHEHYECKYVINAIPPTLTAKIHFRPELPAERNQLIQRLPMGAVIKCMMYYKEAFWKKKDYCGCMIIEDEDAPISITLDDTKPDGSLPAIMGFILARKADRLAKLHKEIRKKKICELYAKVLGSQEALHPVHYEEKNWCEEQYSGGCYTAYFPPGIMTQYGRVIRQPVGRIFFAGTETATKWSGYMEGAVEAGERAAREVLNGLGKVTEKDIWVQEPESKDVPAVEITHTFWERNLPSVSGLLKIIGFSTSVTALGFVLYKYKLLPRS
pIC50 (log units): -log10 of the concentration in mol/L.

N#Cc1ccc(COc2ccc3c(c2)OCC3=O)cc1 yielded pIC50 of 5.30

O=C1COc2cc(OCc3ccc(Br)cc3)ccc21 yielded pIC50 of 5.55

O=C1COc2cc(OCCc3ccc(Br)cc3)ccc21 yielded pIC50 of 5.58

O=C1COc2cc(OCCc3ccccc3)ccc21 yielded pIC50 of 4.86

O=C1COc2cc(OCc3cccc(I)c3)ccc21 yielded pIC50 of 5.12

O=C1COc2cc(OCc3ccccc3)ccc21 yielded pIC50 of 4.57

Cc1cccc(CCOc2ccc3c(c2)OCC3=O)c1 yielded pIC50 of 4.59

O=C1COc2cc(OCc3ccc(F)cc3)ccc21 yielded pIC50 of 4.94
